- tested target: human Opioid Receptor Mu (Opiate Mu), OPRM1 (gene 4988)
- assay notes: NVS_GPCR_hOpiate_mu: NovaScreen (NVS) G Protein-Coupled Receptor Assay for human Opioid Receptor Mu (Opiate Mu) (AID 2283290);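 also: hits lower bound tracer signal versus DMSO meaning displacement of the ligand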
Inconclusive results are not listed. Calls of active or inactive are those of the source. The calls were made as follows: active = hit-call score of the fitted dose curve at least 0.9, where 1 is the maximum; inconclusive = response in the unintended direction; inactive = score below 0.9.
Possible outcomes: YES for active, NO for inactive

- compound: "Cc1ccc2sc3cccc(C)c3c2c1"
  class label: "NO"
- compound: "CCc1c(C)cc(N)c(CC)c1N"
  class label: "YES"
- compound: "CCCOCC(C)O (stereo not given)"
  class label: "YES"
- compound: "O=C1OC2(c3cc(Br)c(O)c(Br)c3Oc3c2cc(Br)c(O)c3Br)c2c(Cl)c(Cl)c(Cl)c(Cl)c21"
  class label: "YES"
- compound: "Nc1cc([N+](=O)[O-])ccc1Cl"
  class label: "NO"
